# Ki against Glucocorticoid receptor (Homo sapiens), merged from multiple literature sources
Target: Glucocorticoid receptor (Homo sapiens)
Sequence (P04150 whole entry): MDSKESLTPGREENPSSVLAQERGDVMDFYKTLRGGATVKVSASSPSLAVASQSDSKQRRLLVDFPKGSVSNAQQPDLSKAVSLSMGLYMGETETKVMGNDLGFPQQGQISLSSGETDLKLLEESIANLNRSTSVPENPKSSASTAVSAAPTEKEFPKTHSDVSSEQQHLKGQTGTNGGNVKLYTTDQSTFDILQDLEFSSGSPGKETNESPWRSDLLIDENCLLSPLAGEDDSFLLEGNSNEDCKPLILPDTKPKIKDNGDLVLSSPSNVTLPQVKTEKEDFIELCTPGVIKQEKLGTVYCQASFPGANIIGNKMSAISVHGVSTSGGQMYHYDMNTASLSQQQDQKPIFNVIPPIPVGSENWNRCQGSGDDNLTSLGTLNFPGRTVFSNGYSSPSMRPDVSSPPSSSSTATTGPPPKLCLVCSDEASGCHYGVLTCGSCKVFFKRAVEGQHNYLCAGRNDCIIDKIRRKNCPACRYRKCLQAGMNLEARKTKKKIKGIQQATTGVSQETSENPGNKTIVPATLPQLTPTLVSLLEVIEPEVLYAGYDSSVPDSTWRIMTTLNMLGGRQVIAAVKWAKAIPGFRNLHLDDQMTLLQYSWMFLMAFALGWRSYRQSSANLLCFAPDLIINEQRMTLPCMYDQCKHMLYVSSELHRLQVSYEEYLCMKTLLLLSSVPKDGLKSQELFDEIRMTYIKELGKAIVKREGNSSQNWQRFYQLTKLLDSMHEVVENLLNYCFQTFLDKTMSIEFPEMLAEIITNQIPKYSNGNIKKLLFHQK
Answer format: numeric, nM implied, no suffix.

(Q) Entry C[C@]12Cn3cnc(-c4ccc(F)cc4)c3C=C1CCC[C@@H]2[C@](C)(O)C1CC1 needs its Ki filled in; supply it.
(A) 2.6

(Q) Entry CN(C)C(=O)c1cnc(-c2ccc3c(c2)Oc2ccccc2C3C(C)(C)C(=O)Nc2nncs2)nc1 (racemic) needs its Ki filled in; supply it.
(A) 4.2

(Q) Entry CN(C)c1ccc(-c2ccc3c(n2)Oc2ccccc2[C@@H]3C(C)(C)C(=O)Nc2nncs2)cc1 needs its Ki filled in; supply it.
(A) 3.8

(Q) Entry CC#C[C@@]1(O)CC[C@@]2(Cc3ccccc3)c3ccc(O)cc3CC[C@@H]2C1 needs its Ki filled in; supply it.
(A) 0.17

(Q) Entry CC(C)(C(=O)Nc1nccs1)C(c1ccccc1)c1ccc2c(cnn2-c2ccc(F)cc2)c1 (racemic) needs its Ki filled in; supply it.
(A) 15
